target: MAPK14 (human) (UniProt Q16539)
Sequence (Q16539 whole entry, looked up): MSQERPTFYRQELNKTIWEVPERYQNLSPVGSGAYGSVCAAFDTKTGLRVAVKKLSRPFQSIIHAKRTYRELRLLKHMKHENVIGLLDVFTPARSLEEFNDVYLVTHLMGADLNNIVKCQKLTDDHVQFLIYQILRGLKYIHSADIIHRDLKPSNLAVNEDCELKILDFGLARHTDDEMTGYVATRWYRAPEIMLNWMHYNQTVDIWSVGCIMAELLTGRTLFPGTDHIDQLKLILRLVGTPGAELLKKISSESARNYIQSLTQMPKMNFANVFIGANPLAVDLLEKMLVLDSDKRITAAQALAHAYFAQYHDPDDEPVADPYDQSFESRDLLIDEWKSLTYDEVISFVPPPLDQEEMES
Recorded measurements of IC50, one per entry
PARAMETER: IC50 (nM)

1. CNC(=O)CCCc1nc(OCc2ccc(F)cc2F)c(Br)c(=O)n1C(C)C 557
2. CNC(=O)CCCc1nc(OCc2ccc(F)cc2F)c(Cl)c(=O)n1C(C)C 490
3. CCNC(=O)NCc1cc(F)ccc1COc1nc(C)n(C(C)C)c(=O)c1Cl 380
4. CC(=O)NCc1nc(OCc2ccc(F)cc2F)c(Br)c(=O)n1C(C)C 1380
5. CC(=O)NCCCNc1nc(OCc2ccc(F)cc2F)c(Br)c(=O)n1C(C)C 13
6. CC(C)n1c(CCC(N)=O)nc(OCc2ccc(F)cc2F)c(Cl)c1=O 2040
7. CC(C)n1c(NCC(C)(C)O)nc(OCc2ccc(F)cc2F)c(Br)c1=O 31.7
8. CC(C)n1c(N2CCNCC2)nc(OCc2ccc(F)cc2F)c(Br)c1=O 732
9. CC(C)n1c(NCCCC(N)=O)nc(OCc2ccc(F)cc2F)c(Br)c1=O 17.3
10. CC(C)n1c(CCCC(=O)NC[C@@H](C)O)nc(OCc2ccc(F)cc2F)c(Cl)c1=O 594
11. CC(C)n1c(N2CC[C@H](N)C2)nc(OCc2ccc(F)cc2F)c(Br)c1=O 818
12. CC(C)n1c(-c2ccccc2)nc(OCc2ccc(F)cc2F)c(Br)c1=O 112
13. CC(C)n1c(NCC(N)=O)nc(OCc2ccc(F)cc2F)c(Cl)c1=O 102
14. CC(C)n1c(OCCNS(C)(=O)=O)nc(OCc2ccc(F)cc2F)c(Cl)c1=O 26.3
15. CC(C)n1c(NCCNC(=O)C(C)(C)O)nc(OCc2ccc(F)cc2F)c(Cl)c1=O 51.6
16. CC(C)n1c(N2CC[C@@H](NC(=O)OCc3cccnc3)C2)nc(OCc2ccc(F)cc2F)c(Br)c1=O 810
17. COC(=O)c1ccc(CNc2nc(OCc3ccc(F)cc3F)c(Br)c(=O)n2C(C)C)cc1 637
18. CC(C)n1c(NCCCNC(=O)C(C)(C)O)nc(OCc2ccc(F)cc2F)c(Br)c1=O 23.8
19. CC(C)n1c(OCCCC(=O)O)nc(OCc2ccc(F)cc2F)c(Cl)c1=O 229
20. CC(C)n1c(CCCO)nc(OCc2ccc(F)cc2F)c(Cl)c1=O 392
21. CCNC(=O)NCc1cc(F)ccc1COc1nc(C)n(C(C)C)c(=O)c1Br 129
22. CC(C)n1c(N2CC[C@@H](O)C2)nc(OCc2ccc(F)cc2F)c(Br)c1=O 605
23. CC(C)n1c(NCCNC(=O)C(C)(C)O)nc(OCc2ccc(F)cc2F)c(Br)c1=O 17.2
24. CC(C)n1c(OCCCC(N)=O)nc(OCc2ccc(F)cc2F)c(Cl)c1=O 155
25. CC(C)n1c(NCCCNC(=O)CO)nc(OCc2ccc(F)cc2F)c(Br)c1=O 12.5

====

biological target: UniProt Q16539
pKi: −log10 of the molar value.
Recorded measurements of pKi, one per entry
PARAMETER: pKi

1. CC(C)n1c(OCCCC(=O)O)nc(OCc2ccc(F)cc2F)c(Cl)c1=O 6.96
2. CC(C)n1c(N2CCC(O)CC2)nc(OCc2ccc(F)cc2F)c(Br)c1=O 6.78
3. CC(C)n1c(OCCNC(N)=O)nc(OCc2ccc(F)cc2F)c(Br)c1=O 9.15
4. CC(C)n1c(NCCNC(=O)C(C)(C)O)nc(OCc2ccc(F)cc2F)c(Cl)c1=O 7.61
5. CC(C)n1c(OCCNC(=O)NCCO)nc(OCc2ccc(F)cc2F)c(Cl)c1=O 6.72

====

Measured log10(Ki) (MAPK14 (human) (UniProt Q16539))
PARAMETER: log10(Ki) (log10 of the value in nM)

1) CC(C)n1c(-c2ccc(C(N)=O)cc2)nc(OCc2ccc(F)cc2F)c(Br)c1=O 1.78
2) CC(C)n1c(N2CC[C@H](N)C2)nc(OCc2ccc(F)cc2F)c(Cl)c1=O 3.03
3) CCN[C@@H]1CCN(c2nc(OCc3ccc(F)cc3F)c(Br)c(=O)n2C(C)C)C1 1.85
4) CC(C)n1c(NCCCNC(=O)CO)nc(OCc2ccc(F)cc2F)c(Br)c1=O 0.77
5) CC(C)n1c(N2CCNCC2)nc(OCc2ccc(F)cc2F)c(Br)c1=O 2.58

====

Measured pKi (UniProt Q16539)
pKi: −log10 of the molar value.

COMPOUND	pKi
CC(C)n1c(N2CCN(C(=O)CN)CC2)nc(OCc2ccc(F)cc2F)c(Br)c1=O	7.09
CC(C)n1c(NCCCNC(=O)C(C)(C)O)nc(OCc2ccc(F)cc2F)c(Br)c1=O	7.90
CC(C)n1c(OCCCC(N)=O)nc(OCc2ccc(F)cc2F)c(Cl)c1=O	7.13
CC(C)n1c(CCCC(N)=O)nc(OCc2ccc(F)cc2F)c(Cl)c1=O	6.90
CC(C)n1c(N2CCCC(C(N)=O)C2)nc(OCc2ccc(F)cc2F)c(Br)c1=O (stereo not given)	7.21

====

Measured IC50 (MAPK14 (human) (UniProt Q16539))
PARAMETER: IC50 (nM)

1) CC(C)n1c(-c2cccc(C(N)=O)c2)nc(OCc2ccc(F)cc2F)c(Cl)c1=O 1020
2) CC(C)n1c(OCCNC(=O)NCCO)nc(OCc2ccc(F)cc2F)c(Cl)c1=O 398
3) CC(C)n1c(O)nc(OCc2ccc(F)cc2F)c(Cl)c1=O 267
4) CC(C)n1c(NCCNC(=O)CO)nc(OCc2ccc(F)cc2F)c(Br)c1=O 14.2
5) CC(C)n1c(CCCC(=O)O)nc(OCc2ccc(F)cc2F)c(Cl)c1=O 497
6) CN[C@@H]1CCN(c2nc(OCc3ccc(F)cc3F)c(Br)c(=O)n2C(C)C)C1 12.8
7) CC(C)n1c(NCC(=O)N2CCCC2)nc(OCc2ccc(F)cc2F)c(Br)c1=O 215
8) CC(C)n1c(NCCN)nc(OCc2ccc(F)cc2F)c(Br)c1=O 143
9) CNC(=O)CCc1nc(OCc2ccc(F)cc2F)c(Cl)c(=O)n1C(C)C 2430
10) CC(C)n1c(OCCNS(C)(=O)=O)nc(OCc2ccc(F)cc2F)c(Br)c1=O 18.5

====

molecular target: UniProt:Q16539

COMPOUND	Ki
CC(C)n1c(N2CC[C@@H](NC(=O)OCc3cccnc3)C2)nc(OCc2ccc(F)cc2F)c(Br)c1=O	476 nM
CC(=O)NCCCNc1nc(OCc2ccc(F)cc2F)c(Br)c(=O)n1C(C)C	6.62 nM
CC(C)n1c(NC[C@H](O)CO)nc(OCc2ccc(F)cc2F)c(Br)c1=O	9.05 nM
CC(C)n1c(N2CCC(N)C2)nc(OCc2ccc(F)cc2F)c(Br)c1=O (stereo unspecified)	62.2 nM
CC(=O)N[C@@H]1CCN(c2nc(OCc3ccc(F)cc3F)c(Cl)c(=O)n2C(C)C)C1	371 nM
CC(=O)NCc1nc(OCc2ccc(F)cc2F)c(Br)c(=O)n1C(C)C	675 nM
CC(C)n1c(NCC(=O)N2CCCC2)nc(OCc2ccc(F)cc2F)c(Br)c1=O	102 nM
CC(C)n1c(NCCNS(C)(=O)=O)nc(OCc2ccc(F)cc2F)c(Cl)c1=O	10.3 nM
CC(C)n1c(N2CC[C@H](NC(=O)CO)C2)nc(OCc2ccc(F)cc2F)c(Cl)c1=O	522 nM
CC(C)n1c(N2CC[C@@H](NC(=O)CO)C2)nc(OCc2ccc(F)cc2F)c(Cl)c1=O	238 nM
CC(C)n1c(O)nc(OCc2ccc(F)cc2F)c(Cl)c1=O	139 nM
CC(C)n1c(NCCNS(C)(=O)=O)nc(OCc2ccc(F)cc2F)c(Br)c1=O	0.205 nM
CC(C)n1c(-c2cccc(C(N)=O)c2)nc(OCc2ccc(F)cc2F)c(Cl)c1=O	557 nM
CC(C)n1c(NC[C@@H](O)CO)nc(OCc2ccc(F)cc2F)c(Br)c1=O	11.1 nM
CC(C)n1c(OCCCCO)nc(OCc2ccc(F)cc2F)c(Cl)c1=O	68.5 nM
CNC(=O)NCCOc1nc(OCc2ccc(F)cc2F)c(Cl)c(=O)n1C(C)C	123 nM
CC(C)n1c(CCCCO)nc(OCc2ccc(F)cc2F)c(Cl)c1=O	90.5 nM
CC(C)n1c(N(C)CC(N)=O)nc(OCc2ccc(F)cc2F)c(Cl)c1=O	774 nM
CC(C)n1c(CCCC(N)=O)nc(OCc2ccc(F)cc2F)c(Br)c1=O	181 nM
CC(C)n1c(CCCC(=O)NCCO)nc(OCc2ccc(F)cc2F)c(Br)c1=O	278 nM
CC(C)n1cnc(OCc2ccc(F)cc2F)c(Cl)c1=O	148 nM
